Source listed as patent EP4737449A1.

assay: Caco-2 cell permeability test; format: in vitro ADME; conditions: human, pH 7.4; Caco-2, 10 µM compound, 120 min
observed-property: Papp A→B at 120 min, 10 µM (×10⁻⁶ cm/s)
Your answer is read as ×10⁻⁶ cm/s, so omit the unit and give the number.

                                   compound  output_unit  result_value
0  CNC(=O)c1ccc(NCC#Cc2cc3c(N[C@@H]4CCN(C)C[C@@H]4F)cccc3n2CC(F)(F)F)c(OC)c1 [Control compound, reference compound]   ×10⁻⁶ cm/s          4.68

Q: Can you share its Papp A→B at 120 min, 10 µM? I mean this compound: CN1CC[C@@H](Nc2cccc3c(CC(F)(F)F)c(C#CCNC(=O)c4cnn(C(C)(C)C)c4)nn23)[C@@H](F)C1 [Compound 001]
A: 4.39
